# target or test system: T1, Human recombinant PTP1B, containing amino acids 1-320, Cys215Ser mutant, fused to GST enzyme (glutathione … (human, UniProt P18031 1-320))
# T1 construct: ID No. 7 (cDNA); the protein in the assay has Ser at 215; also called GST-PTP-1B Cys215Ser mutant; mutant GST-PTP1B; not shown: N-terminal glutathione S-transferase carrier and the pGEX-2T linker residues
# T1 sequence: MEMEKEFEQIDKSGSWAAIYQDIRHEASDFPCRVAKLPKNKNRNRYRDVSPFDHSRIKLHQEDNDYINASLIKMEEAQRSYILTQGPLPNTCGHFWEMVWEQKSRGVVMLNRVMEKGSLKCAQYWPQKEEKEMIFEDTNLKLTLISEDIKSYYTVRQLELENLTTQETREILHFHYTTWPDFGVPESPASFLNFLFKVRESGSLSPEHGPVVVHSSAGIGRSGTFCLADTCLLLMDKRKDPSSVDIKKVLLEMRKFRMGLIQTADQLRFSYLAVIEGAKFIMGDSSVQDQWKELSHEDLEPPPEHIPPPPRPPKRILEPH
# measurement description: GST-PTP1B SPA binding assay, competition with tritiated BzN-EJJ-CONH2, mutated (Ser215) enzyme
Square brackets hold non-standard residues; d marks the D form. Ends that are not written are not given here. F2Pmp = N[C@@H](Cc1ccc(C(F)(F)P(=O)(O)O)cc1)C(=O)O
quantity name: pIC50
Answers are plain numbers, as −log10 of the molar value.

# input Give the measured pIC50 of DADE[F2Pmp]L (Terminal caps, if any, stand only in a structure drawing that is not in the text; also called hexamer peptide containing the phosphotyrosyl mimetic F2Pmp) [DADE(F2PMP)L hexapeptide (T. Burke et al. Biochem. Biophys. Res. Comm. 204, 129, (1994))] .
# output 7.00

These measurements were taken from patent US6348572B1.
